# test_description: protein stability index of a GFP-peptide fusion (yeast GPS) (PSI 1-4); higher = more stable; sorted into four equal gates, so the index is relative within each strain
# condition_description: pdr5∆
Criterion: protein stability index meeting or surpassing 2. Met: 1. Not met: -1.

Reference set (2 entries):
{"entry_sequence": "VSKQLGNGLVDENKVEA [YAR002W/NUP60]", "group": 1}
{"entry_sequence": "QLEDESSRLEFVKGISR [YML103C/NUP188]", "group": 1}

Could you please find out whether EYMKRHPTTIESLREIP [SEC65] has protein stability index that meets 2 or exceeds it?
1

Check IPVKLLNEAQGHIVSLE [SMD3] too.
1

What would you report for RVFRTRFQDGTSVVSIM [SMC2] ?
-1

Record: MSLQHEKVTIAPLVLLS [RPN8]
-1

Here is the next sequence: DSEERDPKLEKCLNYRN [ITC1]
1

Another sequence to check: EVIFSFEGTPPFSLTYV [YMR129W/POM152]
1

Same again, this time with QFAPAFLNTPNNNINEN [SSN2]
1

Repeat for the following sequence: FIKFKLIQQVPPGLDAL [CDC53]
1

Same for KLSDIFLSKPSKALYPD [SNF2]
1

Entry KSTYRTPNFDDVLKENN [RIP1] please
-1

Similarly, KFLREVFVDGEANWPLP [RPO21] ?
1
